// provenance: paper PMC3817407

Target under test: T1, ECF02_2817
T1 chain: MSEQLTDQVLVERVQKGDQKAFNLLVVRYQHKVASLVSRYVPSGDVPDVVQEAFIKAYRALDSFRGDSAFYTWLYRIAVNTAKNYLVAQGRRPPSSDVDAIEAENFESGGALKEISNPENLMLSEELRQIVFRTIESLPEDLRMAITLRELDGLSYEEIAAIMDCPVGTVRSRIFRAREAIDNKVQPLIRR
Attribute measured: fold repression

Entry AS33_375 (protein) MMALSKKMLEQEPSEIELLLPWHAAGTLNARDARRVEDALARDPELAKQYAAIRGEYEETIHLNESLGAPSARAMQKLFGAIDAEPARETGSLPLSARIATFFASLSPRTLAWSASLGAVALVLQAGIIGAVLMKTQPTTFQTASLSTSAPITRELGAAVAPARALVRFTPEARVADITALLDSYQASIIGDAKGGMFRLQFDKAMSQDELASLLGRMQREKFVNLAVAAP — recorded fold repression = 5.75

The measured fold repression associated with AS20_992 (protein) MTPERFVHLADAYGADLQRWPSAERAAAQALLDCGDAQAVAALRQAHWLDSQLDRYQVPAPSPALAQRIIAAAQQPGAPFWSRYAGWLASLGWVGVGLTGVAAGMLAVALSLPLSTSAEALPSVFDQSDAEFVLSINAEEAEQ reads 1.74

Data point: AS01_3473 (protein) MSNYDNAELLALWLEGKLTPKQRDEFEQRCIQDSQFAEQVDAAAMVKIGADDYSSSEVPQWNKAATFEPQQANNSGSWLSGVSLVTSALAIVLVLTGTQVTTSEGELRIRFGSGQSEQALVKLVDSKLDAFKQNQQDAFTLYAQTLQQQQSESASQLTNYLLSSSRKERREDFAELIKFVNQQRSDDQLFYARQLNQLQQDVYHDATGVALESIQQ ; fold repression = 2.1
